measurement_target: HIV-1 nucleocapsid protein (NC) (HIV-1 NL4-3, UniProt P12493 378-432)
method: ITC
observed_property: Kd (nM)

1. UUUGCCCGUCU (ssRNA) [U5UGG (G106U)] : 267
